Give measured self-cleavage kobs at 40 uM GlcN6P for each item. Keep answers brief.
B1: glmS ribozyme (parent)
chain: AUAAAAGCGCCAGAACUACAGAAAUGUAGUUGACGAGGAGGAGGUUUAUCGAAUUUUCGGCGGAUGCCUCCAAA

Variants of: B1
Experiment: self-cleavage kobs at 40 uM GlcN6P; higher = faster cleavage; RNA array
Conditions: with glucosamine-6-phosphate
Fewer inactive variants are shown than the library holds.

Mutant label	self-cleavage kobs at 40 uM GlcN6P
A36G A48U	< 1e-05 s⁻¹
A15U G40A	4.43e-05 s⁻¹
A36U U45A C71G	< 1e-05 s⁻¹
A33C G43C C58A U69A	< 1e-05 s⁻¹
A15C G37A U57G C67G	< 1e-05 s⁻¹

# map each variant to its self-cleavage kobs at 40 uM GlcN6P
1. A12G A14U G38A
2. A12G G29U G44A G63A

Completion:
1: < 1e-05 s⁻¹; 2: < 1e-05 s⁻¹

# map each variant to its self-cleavage kobs at 40 uM GlcN6P
1. C8A A53C G59A C68A
2. C70U

Completion:
1. < 1e-05 s⁻¹
2. 0.00149 s⁻¹
